Target: human cathepsin S (CatS) (Homo sapiens (Human), UniProt P25774)
Sequence (P25774 115-331): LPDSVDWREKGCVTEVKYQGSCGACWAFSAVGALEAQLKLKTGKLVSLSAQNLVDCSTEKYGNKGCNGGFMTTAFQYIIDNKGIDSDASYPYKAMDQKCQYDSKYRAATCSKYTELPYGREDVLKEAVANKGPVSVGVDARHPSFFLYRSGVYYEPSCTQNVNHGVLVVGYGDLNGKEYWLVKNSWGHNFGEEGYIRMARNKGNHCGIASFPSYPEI
Test: CatS functional enzyme assay
Type: biochemical
Settings: ratio Ki(hCatS)/Ki(hCatK)
Description: Reference and test compounds were assayed for inhibitory potency (IC50) against human cathepsins using the following assay setups: Recombinant human cathepsins (CatS, CatK, CatL) were purchased from a Enzo Life Sciences. […] Flourogenic substrate turnover was detected using a microplate reader (Synergy™ H4, BioTek). Ki values were calculated using the Cheng Prusoff equation (Cheng & Prosoff 1973).
Readout: Selectivity Ki(hCatS)/Ki(hCatK)

Recorded results for 5 compounds are shown here.
compound=O=C(N[C@H](C(=O)N1C[C@H](Cl)[C@H]2OCC(=O)[C@H]21)C1CCCCC1)c1ccc(-c2ccncc2)o1 result_value=10.4
compound=N#Cc1cncc(-c2cnc(C(=O)N[C@H](C(=O)N3C[C@H](Cl)[C@H]4OCC(=O)[C@H]43)C3CCCCC3)s2)c1 result_value=3.2
compound=O=C(N[C@H](C(=O)N1C[C@H](Cl)[C@H]2OCC(=O)[C@H]21)C1CCCCC1)c1ccc(-c2cccnn2)o1 result_value=3.2
compound=O=C(N[C@H](C(=O)N1C[C@H](Cl)[C@H]2OCC(=O)[C@H]21)C1CCCCC1)c1ncc(-c2cncnc2)s1 result_value=2.8
compound=O=C(N[C@H](C(=O)N1C[C@H](Cl)[C@H]2OCC(=O)[C@H]21)C1CCCCC1)c1ccc(-c2cnccn2)o1 result_value=5.4

[I] O=C(N[C@H](C(=O)N1C[C@H](Cl)[C@H]2OCC(=O)[C@H]21)C1CCCCC1)c1ncc(-c2cncc(F)c2)s1
[II] O=C(N[C@H](C(=O)N1C[C@H](Cl)[C@H]2OCC(=O)[C@H]21)C1CCCCC1)c1cc(F)c(-c2ccnnc2)s1
[III] Cc1cc(-c2ccc(C(=O)N[C@H](C(=O)N3C[C@H](Cl)[C@H]4OCC(=O)[C@H]43)C3CCCCC3)s2)cnn1
[IV] O=C(N[C@H](C(=O)N1C[C@H](Cl)[C@H]2OCC(=O)[C@H]21)C1CCCCC1)c1ccc(-c2ccncn2)o1
Task field, ranking: reported Selectivity Ki(hCatS)/Ki(hCatK), descending order. # format: label list in the order the request specifies
II, I, IV, III
(II: 37.8, I: 11.1, IV: 2.7, III: 1.1)

[A] O=C(N[C@H](C(=O)N1C[C@H](Cl)[C@H]2OCC(=O)[C@H]21)C1CCCCC1)c1ccc(-c2ccncn2)s1
[B] Cc1ccnnc1-c1ccc(C(=O)N[C@H](C(=O)N2C[C@H](Cl)[C@H]3OCC(=O)[C@H]32)C2CCCCC2)s1
# compare Selectivity Ki(hCatS)/Ki(hCatK) for A vs B ; return the one with the smaller value State the label of the item chosen.
A
(A: 4.7, B: 21.8)

###

Molecular target: human cathepsin S (CatS) (Homo sapiens (Human), UniProt P25774)
Assay: CatS functional enzyme assay
Type: biochemical
Settings: recombinant human CatS, substrate Z-VVR-AMC 5 μM, pH 6.5; Ki by Cheng Prusoff equation; read-out: hCatS, Ki
pKi: −log10 of the molar value.
Readout: pKi

item_smiles=O=C(N[C@H](C(=O)N1C[C@H](Cl)[C@H]2OCC(=O)[C@H]21)C1CCCCC1)c1ccc(-c2ccc(Cl)nc2)s1 readout=pKi result_value=6.46
item_smiles=O=C(N[C@H](C(=O)N1C[C@H](Cl)[C@H]2OCC(=O)[C@H]21)C1CCCCC1)c1ncc(-c2cccnn2)s1 readout=pKi result_value=6.71
item_smiles=Cc1ncc(-c2cnc(C(=O)N[C@H](C(=O)N3C[C@H](Cl)[C@H]4OCC(=O)[C@H]43)C3CCCCC3)s2)cn1 readout=pKi result_value=6.84
item_smiles=Cc1nccc(-c2cnc(C(=O)N[C@H](C(=O)N3C[C@H](Cl)[C@H]4OCC(=O)[C@H]43)C3CCCCC3)s2)n1 readout=pKi result_value=6.50

[a] O=C(N[C@H](C(=O)N1C[C@H](Cl)[C@H]2OCC(=O)[C@H]21)C1CCCCC1)c1ncc(-c2cnc(C3CC3)nc2)s1
[b] Cc1ccnnc1-c1ccc(C(=O)N[C@H](C(=O)N2C[C@H](Cl)[C@H]3OCC(=O)[C@H]32)C2CCCCC2)s1
[c] CCc1cnnc(-c2ccc(C(=O)N[C@H](C(=O)N3C[C@H](Cl)[C@H]4OCC(=O)[C@H]43)C3CCCCC3)s2)c1
Put the items in sequence by pKi, from largest down. Lab note: final answer is the ordered label list.
c, a, b

###

Target: human cathepsin K (CatK) (Homo sapiens (Human), UniProt P43235)
Sequence (P43235 115-329): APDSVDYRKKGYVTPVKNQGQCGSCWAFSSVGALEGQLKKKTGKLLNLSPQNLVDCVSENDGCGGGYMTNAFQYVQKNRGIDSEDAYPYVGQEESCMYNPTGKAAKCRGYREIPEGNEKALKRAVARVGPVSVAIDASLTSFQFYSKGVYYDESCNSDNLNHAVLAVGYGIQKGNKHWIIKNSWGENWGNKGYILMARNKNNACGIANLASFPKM
Test: CatK functional enzyme assay
Details: recombinant human CatK, substrate Z-FR-AMC 40 μM, pH 5.5; Ki by Cheng Prusoff equation; read-out: hCatK, Ki
Protocol: Reference and test compounds were assayed for inhibitory potency (IC50) against human cathepsins using the following assay setups: Recombinant human cathepsins (CatS, CatK, CatL) were purchased from a Enzo Life Sciences. […] Flourogenic substrate turnover was detected using a microplate reader (Synergy™ H4, BioTek). Ki values were calculated using the Cheng Prusoff equation (Cheng & Prosoff 1973).
Readout: Ki (nM)

The cases that follow already have their Ki on record.
item_smiles=Cc1cc(-c2ccc(C(=O)N[C@H](C(=O)N3C[C@H](Cl)[C@H]4OCC(=O)[C@H]43)C3CCCCC3)s2)cnn1 result_value=8
item_smiles=O=C(N[C@H](C(=O)N1C[C@H](Cl)[C@H]2OCC(=O)[C@H]21)C1CCCCC1)c1ccc(-c2ncccn2)s1 result_value=18
item_smiles=CCc1cc(-c2ccc(C(=O)N[C@H](C(=O)N3C[C@H](Cl)[C@H]4OCC(=O)[C@H]43)C3CCCCC3)s2)cnn1 result_value=5
item_smiles=Cc1cc(-c2cnc(C(=O)N[C@H](C(=O)N3C[C@H](Cl)[C@H]4OCC(=O)[C@H]43)C3CCCCC3)s2)cnn1 result_value=18
item_smiles=O=C(N[C@H](C(=O)N1C[C@H](Cl)[C@H]2OCC(=O)[C@H]21)C1CCCCC1)c1ncc(-c2ccncc2F)s1 result_value=11
item_smiles=O=C(N[C@H](C(=O)N1C[C@H](Cl)[C@H]2OCC(=O)[C@H]21)C1CCCCC1)c1cc(F)c(-c2ccnnc2)s1 result_value=12

[A] O=C(N[C@H](C(=O)N1C[C@H](Cl)[C@H]2OCC(=O)[C@H]21)C1CCCCC1)c1ccc(-c2cccnc2)s1
[B] O=C(N[C@H](C(=O)N1C[C@H](Cl)[C@H]2OCC(=O)[C@H]21)C1CCCCC1)c1ccc(-c2cnnc(O)c2)s1
[C] O=C(N[C@H](C(=O)N1C[C@H](Cl)[C@H]2OCC(=O)[C@H]21)C1CCCCC1)c1ccc(-c2cnc(C(F)(F)F)nc2)s1
[D] O=C(N[C@H](C(=O)N1C[C@H](Cl)[C@H]2OCC(=O)[C@H]21)C1CCCCC1)c1ccc(-c2cnc(C3CC3)nc2)s1
[E] O=C(N[C@H](C(=O)N1C[C@H](Cl)[C@H]2OCC(=O)[C@H]21)C1CCCCC1)c1ncc(-c2cccnc2)s1
Order field: Ki | Direction: descending (largest first) List labels; respect the requested ordering.
C, D, B, E, A
(C: 76 nM, D: 29 nM, B: 16 nM, E: 8 nM, A: 5 nM)

###

Biological target: human cathepsin K (CatK) (Homo sapiens (Human))
Assay: CatK functional enzyme assay
Conditions: recombinant human CatK, substrate Z-FR-AMC 40 μM, pH 5.5; Ki by Cheng Prusoff equation; read-out: hCatK, Ki
Readout: Ki (nM)

Would you please look over these solved cases?
item_smiles=O=C(N[C@H](C(=O)N1C[C@H](Cl)[C@H]2OCC(=O)[C@H]21)C1CCCCC1)c1ccc(-c2cc(C3CC3)cnn2)s1 readout=Ki unit_symbol=nM result_value=22
item_smiles=CS(=O)(=O)c1cnnc(-c2ccc(C(=O)N[C@H](C(=O)N3C[C@H](Cl)[C@H]4OCC(=O)[C@H]43)C3CCCCC3)s2)c1 readout=Ki unit_symbol=nM result_value=20
item_smiles=O=C(N[C@H](C(=O)N1C[C@H](Cl)[C@H]2OCC(=O)[C@H]21)C1CCCCC1)c1ncc(-c2ccc(Cl)nc2)s1 readout=Ki unit_symbol=nM result_value=14
item_smiles=O=C(N[C@H](C(=O)N1C[C@H](Cl)[C@H]2OCC(=O)[C@H]21)C1CCCCC1)c1ncc(-c2cncc(F)c2)s1 readout=Ki unit_symbol=nM result_value=20
item_smiles=O=C(N[C@H](C(=O)N1C[C@H](Cl)[C@H]2OCC(=O)[C@H]21)C1CCCCC1)c1ccc(-c2ccncc2)o1 readout=Ki unit_symbol=nM result_value=50

[I] O=C(N[C@H](C(=O)N1C[C@H](Cl)[C@H]2OCC(=O)[C@H]21)C1CCCCC1)c1ncc(-c2ccncc2)s1
[II] O=C(N[C@H](C(=O)N1C[C@H](Cl)[C@H]2OCC(=O)[C@H]21)C1CCCCC1)c1ccc(-c2ccc(C3CC3)nc2)s1
Form field 'greater Ki' accepts I or II ; which applies? Answer by stating the label of the chosen item.
II

These measurements were taken from patent US9725459B2.
